Test: Toxicity liver stage against HepG2, at 10uM
Assay type: cell-based
Set-up: test concentration 10 uM, cell line HepG2-A16-CD81EGFP
Conditions: human, HepG2-A16-CD81EGFP cells; read-out: INHIBITION
Metric name: cytotoxicity at 10 µM (%)
Numbers only, in %.

For orientation, consider the following solved cases.
NS(=O)(=O)c1ccc(CNCC(=O)NCc2ccc(Cl)cc2Cl)cc1 = -48.6
O=C(c1ccccc1-c1nnn[nH]1)N1CCOC(C(F)(F)F)C1 (stereo not given) = -1.67
O=C1C(n2nnc(-c3cccs3)n2)CCN1CC(F)(F)F (stereo not given) = -0.0198
Cn1cc(CN2CCOC(c3cccc(-c4cccc(F)c4)n3)C2)cn1 (stereo not given) = -11.1
CS(=O)(=O)N1CCc2sc(C(=O)NCCc3ccccn3)cc21 = -0.464
Cc1nc2sccn2c1C(=O)N1CCc2c(nc(N(C)C)[nH]c2=O)C1 = 5.06
CN1CCN(C(=O)c2ccc3c(c2)[nH]c(=O)n3C2CCCC2)CC1 = -42.2
c1ccc(COC2C[C@@H]3CN(Cc4cccnc4)C[C@@H]3C2)cc1 (stereo not given in full) = 2.92
CC1=N[C@@]2(CC[C@@H]3CN(C(=O)NCc4ccccc4C)C[C@@H]32)C(=O)N1 = -74.9
Cn1ccc(CN2CCC3(CC2)CC(Nc2ccccn2)CO3)n1 (stereo not given) = -1.19

Report cytotoxicity at 10 µM for each item below.
1. O=C(C1CCCC1)N1CCCC1c1nnc2n1CCCCC2 (stereo not given)
2. CCCn1ccnc1CN1CCCC(O)(CN(C)C)CC1 (stereo not given)

[-2.58, 1.33]

Report cytotoxicity at 10 µM for each item below.
1. Cc1nc(O)cc(CNC(=O)CC[C@@H]2CCCN3CCCC[C@H]23)n1
2. CC(C)c1ncc2c(n1)CN(Cc1nc3c(F)cccc3[nH]1)CC2
3. CCN1CCN(C)C2(CCN(C(=O)CC(F)(F)F)CC2)C1=O
4. Cc1ccc(CNC2(Cc3cc(C(C)(C)O)on3)COC2)o1
5. CCN1C(=O)CCCC12CCCN(C(=O)c1cc(C)oc1C)C2 (stereo not given)
6. FC1(F)CCN(Cc2ccncc2)CC12CCN(c1cnccn1)C2 (stereo not given)
7. COCC1Cn2nnc(-c3cnn(C)c3)c2CN1Cc1cccs1 (stereo not given)
8. O=C(C1CCCOC1)N1CCCc2ccccc21 (stereo not given)

1.87
1.09
0.797
-1.18
4.09
3.19
6.24
10.1

Report cytotoxicity at 10 µM for each item below.
1. Cc1nc(CN2CCC3(CC2)C(=O)N(C)CCN3C)cs1
2. Cc1ccc2c(c1)CCC21CCN(C(=O)CN(C)C)CC1
3. CCc1oc(C(=O)NCCSc2ncn[nH]2)cc1CN1CCCC1
4. COCCCS(=O)(=O)N1CCN(C(=O)CO)CC1
5. CCOCCC1(CNC(=O)c2ccncc2Cl)CCC1

[4.37, -6.25, -5.25, -0.995, 5.38]

====

What cytotoxicity at 10 µM was measured for each of the following?
Test: Toxicity liver stage against HepG2, at 10uM
Type: cell-based
Design: test concentration 10 uM, cell line HepG2-A16-CD81EGFP
Settings: human, HepG2-A16-CD81EGFP cells; read-out: INHIBITION
One number for each entry, in %.

For orientation, consider the following solved cases.
CN(C)C(=O)N1CCC2(CC1)CN(CC1CC1)CC21CCNC1=O (stereo not given) = 3.67
CCOc1ccnc(N2CCN(C(=O)c3cnc[nH]3)CC2)n1 = -2.06

Report cytotoxicity at 10 µM for each item below.
1. CC(=O)N1CCC(C(=O)N(CC(F)F)c2cccc(Cl)c2)CC1
2. CCc1cc(=O)n(CC(=O)NCC2CCCO2)c(-c2cccc(F)c2)n1 (stereo not given)
3. CC(CNC(=O)Nc1cn[nH]c1)N1CCOCC1 (stereo not given)

1: 5.71; 2: -1.61; 3: 1.92

Report cytotoxicity at 10 µM for each item below.
1. CC(C)CCN1CCC2(CC1)NCc1ccccc1NC2=O
2. COc1ccc(CNc2c(N3CCN(C(C)=O)CC3)c(=O)c2=O)cc1
3. Cc1nc(C2CN(C)CCO2)cc(N2CCSCC2)n1 (stereo not given)
4. CN1C[C@H]2N(c3ncccn3)CCC[C@@]2(C(=O)NCC2CC2)C1

[3.46, -2.36, -15.6, -103]

Report cytotoxicity at 10 µM for each item below.
1. Cc1cccc(CN2CCC3(CC2)NC(=O)CC3c2ccccc2)n1 (stereo not given)
2. C=C(C)COc1cccc(C(=O)NC(C)c2nnn[nH]2)c1 (stereo not given)
3. CCCc1nc(CNCC2CCCN2c2cccnn2)no1 (stereo not given)
4. O=C(CNC(=O)C1(c2ccc(F)cc2F)CCC1)Nc1ccccn1
5. O=C(c1cnccn1)N1CCc2ncc(CN3CCOCC3)n2CC1
6. Cc1cc(CN2CCN(C(=O)NCc3c(C)noc3C)CC2)on1

-0.508
-8.32
-9.52
-16.5
-77
0.386

====

What cytotoxicity at 10 µM was measured for each of the following?
Assay: Toxicity liver stage against HepG2, at 10uM
Assay type: cell-based
Parameters: test concentration 10 uM, cell line HepG2-A16-CD81EGFP
Settings: human, HepG2-A16-CD81EGFP cells; read-out: INHIBITION
Numbers only, in %.

Oc1ccc(N2CCN(Cc3ccc(F)cc3Br)CC2)cc1 = -13.2
CCc1nccn1-c1cncc(C2CCCN2Cc2ccc(F)cc2)n1 (stereo not drawn) = -1.44
COC(=O)COn1c(SC(C)C)nc2ccccc2c1=O = -6.17
CCc1cc(=O)n(CC(=O)N2CCC(C)CC2)c(-c2cccc(F)c2)n1 = 7.63
O=C(C1CCOC1)N1C[C@H]2CN(Cc3nccs3)C[C@H]2C1 (stereo partly drawn) = 5.04

Report cytotoxicity at 10 µM for each item below.
1. O=C1CC(NCc2ccncc2)CN1CCc1cccc(Cl)c1 (stereo not drawn)
2. CCCNC(=O)c1cc(C(C)C)nc(N2CCCCC2)n1
3. CCCn1c(C)c(CC(=O)NCCNC(C)=O)c2c1CC(C)(C)CC2=O
4. COCCN1C[C@@H]2[C@@H](OC)CCN(Cc3ccncc3)[C@@H]2C1
5. O=C(O)c1nn(CC2CC2)c2c1CN(S(=O)(=O)c1cccnc1)CC2
6. Cc1ccc2c(c1)C1(CCN(S(C)(=O)=O)CC1)CN2C(=O)N(C)C
7. CCN(CC)S(=O)(=O)CCNC(=O)N(C)C(C)c1ccccn1 (stereo not drawn)
8. NC(=O)c1ccccc1-n1cc(-c2cccc(C(=O)O)c2)cn1

1: -127; 2: 15.8; 3: 6.2; 4: 5.16; 5: 3.16; 6: -121; 7: 10.6; 8: -5.65

Report cytotoxicity at 10 µM for each item below.
1. Cc1cccc(-n2ncc3c2CCCC3NCC(C)(C)CO)c1C (stereo not drawn)
2. CCc1ccccc1CNC(=O)CNC(=O)C(C)(C)C
3. c1ccc(-c2noc(CN3CCCC(Cn4cncn4)C3)n2)nc1 (stereo not drawn)
4. COc1ccc(CN2CCOC3(CCCN(c4cnccn4)C3)C2)cc1 (stereo not drawn)

1. -1.19
2. 2.29
3. 3.12
4. 10.5

Given the entry Nc1cc(CCC2CN(Cc3cccc(C(=O)O)c3)CCO2)ccn1 (stereo not drawn) , report its measured cytotoxicity at 10 µM.
-1.17

====

Test: Toxicity liver stage against HepG2, at 10uM
Type: cell-based
Design: test concentration 10 uM, cell line HepG2-A16-CD81EGFP
Settings: human, HepG2-A16-CD81EGFP cells; read-out: INHIBITION
Metric name: cytotoxicity at 10 µM (%)
Numbers only, in %.

For orientation, consider the following solved cases.
CCc1cc(N2CCC(NCCc3ccccc3F)CC2)nc(C)n1 = 7.33
CN(C)C(=O)CO[C@@H]1CC[C@H]2[C@H]1OCCN2c1ncccn1 = -6.96
Cc1ccc(Nc2nccc(C3CCCN(CC(=O)N(C)C)C3)n2)nc1 (stereo not given) = -2.09
Cc1cnn(C2CCCN(C(=O)c3cc(-c4ccccc4C)n[nH]3)C2)c1 (stereo not given) = -9.66
CC(C)CCc1nc(CNCC2CCCN2c2cccnn2)cs1 (stereo not given) = -10.7

Report cytotoxicity at 10 µM for each item below.
1. Cc1ccc(C(=O)N2CCCC(Cn3cc(C(C)(C)N)nn3)C2)s1 (stereo not given)
2. O=C(c1cnc(O)cn1)N(Cc1ccsc1)CC1CCCO1 (stereo not given)
3. CCN1CCC2(CC1)CC(NC(=O)NC)c1cc(C)ccc12 (stereo not given)
4. CC(C)CN1C[C@@H]2CN(S(=O)(=O)c3cccs3)C[C@@H]2C1=O
5. CCS(=O)(=O)NCCNCc1cc(F)ccc1Br

1. -19.1
2. 3.7
3. -6.01
4. 4.09
5. 1.58

All figures here come from ChEMBL document CHEMBL4513216.
